target: T1, human SIRPA_V1 protein (human, UniProt P78324 31-504); assay: blocking cell-based ELISA: peroxidase-labeled CD47-Fc (10,000 ng/mL) on 293α cells expressing SIRPA_V1; y axis = CD47-Fc signal in % of no antibody [i]
T1 construct: Expressed on 293α cells from pcDNA3.2 V5-DEST or pFLAG V5-DEST (FLAG-tagged) vectors; also called human SIRPA Variant 1; hSIRPA V1
T1 sequence (P78324 31-504 limits assumed): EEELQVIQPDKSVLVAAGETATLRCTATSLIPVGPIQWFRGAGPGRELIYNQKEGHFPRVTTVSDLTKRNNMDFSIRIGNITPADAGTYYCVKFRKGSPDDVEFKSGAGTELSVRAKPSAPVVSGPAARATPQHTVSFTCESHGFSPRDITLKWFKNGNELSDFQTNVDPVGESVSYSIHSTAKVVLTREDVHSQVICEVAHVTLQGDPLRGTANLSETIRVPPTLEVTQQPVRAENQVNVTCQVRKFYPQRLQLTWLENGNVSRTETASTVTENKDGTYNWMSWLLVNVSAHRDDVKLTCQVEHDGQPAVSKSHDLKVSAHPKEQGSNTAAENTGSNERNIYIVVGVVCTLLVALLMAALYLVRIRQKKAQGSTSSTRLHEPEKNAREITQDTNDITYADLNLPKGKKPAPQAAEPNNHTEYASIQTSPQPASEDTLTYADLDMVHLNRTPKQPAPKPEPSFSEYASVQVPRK
Source text: […]
Could you please report measured IC50 (read off the curve) for the items listed next?

// query IC50 (read off the curve) value for entry human chimeric anti-SIRPA antibody cF44 (antibody, human IgG4 S228P, kappa, F234A L235A, V domains shown, Human IgG4proFALA heavy chain, human kappa light chain; also called cF44 (IgG4pf); human chimeric antibody F44) VH: EVQLVESGGGLVQPGRSLKLSCAASGFTFSNYYMAWVRQAPTKGLEWVTYITTGGGSTYFRDSVKGRFTISRDNAESTLYLQMDSLRSEDTATYYCTAANYGGSYFDYWGQGVMVTVSS VL: DVQMTQSPSNLAASPGESVSINCKASKSISKYLAWYQQKPGKANKLLIYSGSTLQSGTPSRFSGSGSGTDFTLTIRNLEPEDFGLYYCQQHNEYPPTFGAGTKLELKR
~0.6 µg/mL

// query IC50 (read off the curve) value for entry cF44 (IgG4p) (antibody, V domains shown, Human IgG4p (PRO mutation) constant region; also called cF44 IgG4p type) VH: EVQLVESGGGLVQPGRSLKLSCAASGFTFSNYYMAWVRQAPTKGLEWVTYITTGGGSTYFRDSVKGRFTISRDNAESTLYLQMDSLRSEDTATYYCTAANYGGSYFDYWGQGVMVTVSS VL: DVQMTQSPSNLAASPGESVSINCKASKSISKYLAWYQQKPGKANKLLIYSGSTLQSGTPSRFSGSGSGTDFTLTIRNLEPEDFGLYYCQQHNEYPPTFGAGTKLELK
~0.5 µg/mL

// query IC50 (read off the curve) value for entry cF44 (IgG1) (antibody, V domains shown, Human IgG1 constant region; also called cF44 IgG1 type) VH: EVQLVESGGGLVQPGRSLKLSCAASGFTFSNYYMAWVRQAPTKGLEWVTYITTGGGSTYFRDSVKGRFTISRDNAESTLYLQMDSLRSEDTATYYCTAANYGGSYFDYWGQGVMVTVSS VL: DVQMTQSPSNLAASPGESVSINCKASKSISKYLAWYQQKPGKANKLLIYSGSTLQSGTPSRFSGSGSGTDFTLTIRNLEPEDFGLYYCQQHNEYPPTFGAGTKLELK
~0.4 µg/mL

// query IC50 (read off the curve) value for entry cF44 (IgG2) (antibody, V domains shown, Human IgG2 constant region; also called cF44 IgG2 type) VH: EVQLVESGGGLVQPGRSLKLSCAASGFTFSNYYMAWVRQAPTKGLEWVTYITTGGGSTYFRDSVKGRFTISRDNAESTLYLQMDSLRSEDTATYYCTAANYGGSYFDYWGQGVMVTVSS VL: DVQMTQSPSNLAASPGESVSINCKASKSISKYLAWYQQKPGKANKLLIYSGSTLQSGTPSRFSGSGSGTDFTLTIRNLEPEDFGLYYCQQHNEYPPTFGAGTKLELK
~0.4 µg/mL
